target: S1P3 (Homo sapiens (Human)); assay: Receptor [35S] GTPγS Binding Assay, S1P3; details: membranes from EDG3-Ga15-b1a HEK293T cells
Sequence (Q99500 whole entry): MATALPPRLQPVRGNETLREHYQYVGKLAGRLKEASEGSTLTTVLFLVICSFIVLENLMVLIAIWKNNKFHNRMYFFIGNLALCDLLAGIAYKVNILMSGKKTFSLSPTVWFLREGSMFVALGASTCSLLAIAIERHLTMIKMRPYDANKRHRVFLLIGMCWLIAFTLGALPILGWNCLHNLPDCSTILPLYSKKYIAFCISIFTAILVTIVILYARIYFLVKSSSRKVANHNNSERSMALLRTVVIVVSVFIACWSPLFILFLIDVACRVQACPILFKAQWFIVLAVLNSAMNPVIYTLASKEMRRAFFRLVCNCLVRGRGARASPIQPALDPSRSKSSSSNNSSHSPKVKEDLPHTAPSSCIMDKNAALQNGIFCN

{"molecule": "O=C(O)C1CN(Cc2ccc(-c3noc(CCCC4(c5ccccc5)CCCCC4=O)n3)cc2)C1 (stereo not drawn) [Example 11]", "unit.name": "nM", "value.prefix": "=", "EC50": 58.6}
{"molecule": "O=C(O)C1CN(Cc2ccc(-c3noc(C(F)(F)C(O)C4(c5ccc(Cl)cc5)CC4)n3)cc2)C1 (stereo not drawn) [Example 85]", "unit.name": "nM", "value.prefix": ">", "EC50": 62500}
{"molecule": "O=C(O)C1CN(Cc2ccc(-c3noc(COCC4(c5ccc(F)cc5)CCCCC4)n3)cc2)C1 [Example 18]", "unit.name": "nM", "value.prefix": "=", "EC50": 9.23}
{"molecule": "O=C(O)C1CN(Cc2ccc(-c3noc(/C=C/C4(Cc5ccccc5)CCC4)n3)cc2)C1 [Example 103]", "unit.name": "nM", "value.prefix": "=", "EC50": 1490}
{"molecule": "O=C(O)C1CN(Cc2ccc(-c3noc(C/C=C/C4(c5ccc(F)cc5)CCCCC4)n3)cc2)C1 [Example 100]", "unit.name": "nM", "value.prefix": "=", "EC50": 11.7}
{"molecule": "O=C(O)C1CN(Cc2ccc(-c3noc(CCC4(c5cccnc5)CCOCC4)n3)cc2)C1 [Example 108]", "unit.name": "nM", "value.prefix": ">", "EC50": 62500}
{"molecule": "O=C1NC(=O)C2(CN(Cc3ccc(-c4noc(COCC5(c6ccc(Cl)cc6)CCC5)n4)cc3)C2)N1 [Example 19]", "unit.name": "nM", "value.prefix": "=", "EC50": 5380}
{"molecule": "Cc1cc(-c2noc(CCC3(c4ccc(F)cc4)CCCCC3)n2)cc(C)c1OC[C@@H](O)CO [Example 4]", "unit.name": "nM", "value.prefix": "=", "EC50": 10.2}
{"molecule": "O=C(O)C1CN(Cc2ccc(-c3noc(/C=C/C4(c5ccc(Cl)cc5)CCCCC4)n3)cc2)C1 [Example 92]", "unit.name": "nM", "value.prefix": "=", "EC50": 421}
{"molecule": "O=C(O)C1CN(Cc2ccc(-c3noc(CCCC4(c5ccc(F)cc5)CCCCC4)n3)cc2)C1 [Example 9]", "unit.name": "nM", "value.prefix": "=", "EC50": 16.4}
{"molecule": "Cc1cc(-c2noc(/C=C/C3(c4ccc(Cl)cc4)CCCCC3)n2)cc(C)c1OC[C@@H](O)CO [Example 52]", "unit.name": "nM", "value.prefix": "=", "EC50": 139}
{"molecule": "O=C(O)C1CN(Cc2ccc(-c3noc(COCC4(c5ccc(Cl)cc5)CCC4)n3)c(F)c2)C1 [Example 143]", "unit.name": "nM", "value.prefix": "=", "EC50": 3730}
{"molecule": "O=C(O)C1CN(Cc2ccc(-c3noc(CCCC4(c5ccc(Cl)cc5)CCCCC4)n3)cc2)C1 [Example 98]", "unit.name": "nM", "value.prefix": "=", "EC50": 27.4}
{"molecule": "O=C(O)C1CN(Cc2ccc(-c3noc(CCC4(c5ccc(F)cc5)CCCCC4)n3)cc2)C1 [Example 63]", "unit.name": "nM", "value.prefix": "=", "EC50": 4.94}
{"molecule": "O=C(O)C1CN(Cc2ccc(-c3noc(COCC4(c5ccc(Cl)cc5)CCC4)n3)c(Cl)c2)C1 [Example 141]", "unit.name": "nM", "value.prefix": "=", "EC50": 5240}
